targetDesc: Hsp90β (Homo sapiens (Human), UniProt P08238)
Sequence (P08238 whole entry): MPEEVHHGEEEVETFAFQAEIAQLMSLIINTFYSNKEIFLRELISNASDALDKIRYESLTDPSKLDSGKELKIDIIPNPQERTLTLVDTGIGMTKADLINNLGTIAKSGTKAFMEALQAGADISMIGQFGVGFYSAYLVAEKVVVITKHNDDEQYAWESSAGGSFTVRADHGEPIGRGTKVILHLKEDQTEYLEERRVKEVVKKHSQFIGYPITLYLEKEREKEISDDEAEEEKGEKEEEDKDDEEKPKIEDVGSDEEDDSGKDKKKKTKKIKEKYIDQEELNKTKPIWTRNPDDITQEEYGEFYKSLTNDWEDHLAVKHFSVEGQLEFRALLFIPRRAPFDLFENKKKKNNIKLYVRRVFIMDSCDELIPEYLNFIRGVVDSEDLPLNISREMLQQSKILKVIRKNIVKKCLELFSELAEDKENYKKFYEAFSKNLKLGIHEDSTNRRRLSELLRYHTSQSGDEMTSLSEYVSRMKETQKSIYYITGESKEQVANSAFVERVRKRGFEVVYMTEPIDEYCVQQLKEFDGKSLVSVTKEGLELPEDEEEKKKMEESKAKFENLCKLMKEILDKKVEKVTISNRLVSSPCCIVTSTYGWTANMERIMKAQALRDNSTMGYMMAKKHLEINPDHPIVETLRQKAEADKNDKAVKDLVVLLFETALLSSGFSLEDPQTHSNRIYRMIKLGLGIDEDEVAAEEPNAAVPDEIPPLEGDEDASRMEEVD
testDescription: Fluorescence polarization assay (FITC-GDA tracer displacement)
Type: binding
conditionDetails: fluorescence polarization; read-out: Kd Hsp90β
Task for the reader: assign each of the following molecules its reported pKd.
Please note pKd is a logarithmic value: minus log10 of concentration in mol/L. Answer with that number alone.

Input: Write pKd of CC(C)c1cc(C(=O)N2Cc3ccccc3C2)c(O)c2c1C1C=NNC1O2 (stereo not shown) ; system used: Hsp90β (Homo sapiens (Human), UniProt P08238)
Output: 6.14

Input: Write pKd of CC(C)c1cc(C(=O)N2Cc3ccccc3C2)c(O)c2c1CNC2=O ; system used: Hsp90β (Homo sapiens (Human), UniProt P08238)
Output: 6.48

Input: Write pKd of CCCC1Cc2c(C(C)C)cc(C(=O)N3Cc4ccccc4C3)c(O)c2C1=O (stereo not shown) ; system used: Hsp90β (Homo sapiens (Human), UniProt P08238)
Output: 5.57

Input: Write pKd of CC1Cc2c(C(C)C)cc(C(=O)N3Cc4ccccc4C3)c(O)c2C1=O (stereo not shown) ; system used: Hsp90β (Homo sapiens (Human), UniProt P08238)
Output: 6.53

Input: Write pKd of CC(C)c1cc(C(=O)N2Cc3ccccc3C2)c(O)cc1CBr ; system used: Hsp90β (Homo sapiens (Human), UniProt P08238)
Output: 6.14

Input: Write pKd of CC(C)c1ccc(O)c(C(=O)N2Cc3ccccc3C2)c1 ; system used: Hsp90β (Homo sapiens (Human), UniProt P08238)
Output: 5.79

Input: Write pKd of CC(C)c1cc(C(=O)N2Cc3ccccc3C2)c(O)cc1CO ; system used: Hsp90β (Homo sapiens (Human), UniProt P08238)
Output: 5.71

Input: Write pKd of C=Cc1c(O)c(C(=O)N2Cc3ccccc3C2)cc(C(C)C)c1O ; system used: Hsp90β (Homo sapiens (Human), UniProt P08238)
Output: 5.28

Input: Write pKd of CC(C)c1cc(C(=O)N2Cc3ccccc3C2)c(O)c2c1CCC2=O ; system used: Hsp90β (Homo sapiens (Human), UniProt P08238)
Output: 6.96

====

System: NCI-H23 cells
testDescription: Anti-proliferation assay (MTS/PMS, 72 h)
Type: cell-based
conditionDetails: Homo sapiens, non-small cell lung cancer
Task for the reader: assign each of the following molecules its reported pIC50.
Please note pIC50 is a logarithmic value: minus log10 of concentration in mol/L. Answer with that number alone.

Input: Note pIC50 for the molecule shown: O=C(c1cc(Br)c2cn[nH]c2c1O)N1Cc2ccccc2C1
Output: 4.87

Input: Note pIC50 for the molecule shown: CC(C)c1cc(C(=O)N2Cc3ccc(F)cc3C2)c(O)c2cnoc12
Output: 5.24

Input: Note pIC50 for the molecule shown: CC(C)c1cc(C(=O)N2Cc3ccccc3C2)c(O)c(CO)c1O [drawing 45]
Output: 5.41

Input: Note pIC50 for the molecule shown: CC(C)c1cc(C(=O)N2Cc3ccccc3C2)c(O)c2[nH]ncc12
Output: 4.86

Input: Note pIC50 for the molecule shown: CC(C)c1cc(C(=O)N2Cc3ccc(F)cc3C2)c(O)c(CO)c1O
Output: 5.67

====

targetDesc: Hsp90β (Homo sapiens (Human), UniProt P08238)
testDescription: Fluorescence polarization assay (FITC-GDA tracer displacement)
Format: binding
conditionDetails: fluorescence polarization; read-out: Kd Hsp90β
Lab note: cut-off is 4 µM. Strictly less in Kd is MET. Exactly 4 µM or more is NOT MET.

Input: Check if Kd falls below 4 µM for CC(C)c1cc(C(=O)N2Cc3ccccc3C2)c(O)c(C=O)c1O .
Output: NOT MET

Input: Check if Kd falls below 4 µM for CNCc1cc(O)c(C(=O)N2Cc3ccccc3C2)cc1C(C)C .
Output: NOT MET

Input: Check if Kd falls below 4 µM for CC(C)c1cc(C(=O)N2Cc3ccccc3C2)c(O)c2nc[nH]c12 .
Output: NOT MET

Input: Check if Kd falls below 4 µM for CCc1c(O)c(C(=O)N2Cc3ccccc3C2)cc(C(C)C)c1O .
Output: MET

Input: Check if Kd falls below 4 µM for CCC1Cc2c(C(C)C)cc(C(=O)N3Cc4ccccc4C3)c(O)c2C1=O (stereo not shown) .
Output: MET

Input: Check if Kd falls below 4 µM for COCc1cc(O)c(C(=O)N2Cc3ccccc3C2)cc1C(C)C .
Output: NOT MET

Input: Check if Kd falls below 4 µM for CC(C)c1cc(C(=O)N2Cc3ccccc3C2)c(O)c(CO)c1O .
Output: NOT MET

# credit: patent US10927076B2
